Molecular target: T1, human SEMA4A expressed on cells (UniProt ID Q9H3S1, isoform 1) (human, UniProt Q9H3S1 33-761)
T1 sequence: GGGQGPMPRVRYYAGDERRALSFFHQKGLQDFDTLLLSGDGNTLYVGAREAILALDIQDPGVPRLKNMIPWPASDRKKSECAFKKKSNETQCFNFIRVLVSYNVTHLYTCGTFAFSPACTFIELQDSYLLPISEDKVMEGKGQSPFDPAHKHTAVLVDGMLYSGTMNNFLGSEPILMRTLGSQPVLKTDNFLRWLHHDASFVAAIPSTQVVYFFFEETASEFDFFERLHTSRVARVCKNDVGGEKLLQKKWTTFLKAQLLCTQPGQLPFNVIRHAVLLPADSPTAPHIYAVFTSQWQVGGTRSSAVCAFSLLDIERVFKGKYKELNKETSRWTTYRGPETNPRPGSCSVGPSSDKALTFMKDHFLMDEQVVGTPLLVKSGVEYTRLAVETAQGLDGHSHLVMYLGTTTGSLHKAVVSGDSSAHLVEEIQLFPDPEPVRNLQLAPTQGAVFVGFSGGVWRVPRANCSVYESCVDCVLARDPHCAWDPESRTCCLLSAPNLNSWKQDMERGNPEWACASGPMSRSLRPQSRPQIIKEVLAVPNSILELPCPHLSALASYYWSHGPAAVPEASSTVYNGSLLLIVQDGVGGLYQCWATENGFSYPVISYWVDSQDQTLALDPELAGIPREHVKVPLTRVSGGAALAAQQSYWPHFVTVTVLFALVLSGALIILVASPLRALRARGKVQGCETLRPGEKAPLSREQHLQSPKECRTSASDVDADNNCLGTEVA
Assay: cell-based or functional assay

{"binder": "mouse 5E3 expressed as human IgG1 Alya (antibody, V domains shown, Mouse variable domains on human IgG1 Alya constant (pEU1.22; 239iCys and S442C, EU numbering); purified, unconjugated; also called 5E3 IgG1 Alya) VH: QVQLQQPGAELVMPGASVKMSCKASGYTFTDYWMHWVKQRPGQGLEWIGAIDTSDSYTSYNQKFKGKATLTVDESSSTAYMQLSSLTSEDSAVYYCARDYGNFYYYAMDYWGQGTSVTVSS VL: QAVVTQESALTTSPGETVTLTCRSSTGAVTTSNYANWVQEKPDHLFTGLIGGTNNRAPGVPARFSGSLIGDKAALTITGAQTEDEAIYFCALWYSNHWVFGGGTKLTVL", "IC50 (pM), Fab-ZAP cell kill, NCI-H929": 38}
{"binder": "5Hg1-5Lg2 human Alya IgG1 (antibody, V domains shown, Humanised 5E3; human IgG1 Alya constant (239iCys, S442C, EU), lambda light chain; purified, unconjugated) VH: QVQLVQSGAEVKKPGASVKVSCKASGYTFTDYWMHWVRQAPGQGLEWMGAIDTSDSYTSYNQKFKGRVTMTRDTSTSTVYMELSSLRSEDTAVYYCARDYGNFYYYAMDYWGQGTLVTVSS VL: QAVVTQEPSLTVSPGGTVTLTCRSSTGAVTTSNYANWFQQKPGQAPRTLIYGTNNRAPWTPARFSGSLLGGKAALTLLGAQPEDEAEYYCALWYSNHWVFGGGTKLTVL", "IC50 (pM), Fab-ZAP cell kill, NCI-H929": 74}
{"binder": "5Hg4-5Lg5 human Alya IgG1 (antibody, V domains shown, Humanised 5E3; human IgG1 Alya constant (239iCys, S442C, EU), lambda light chain; purified, unconjugated) VH: QVQLVQSGSELKKPGASVKVSCKASGYTFTDYWMHWVRQAPGQGLEWMGAIDTSDSYTSYNQKFKGRFVFSLDTSVSTAYLQICSLKAEDTAVYYCARDYGNFYYYAMDYWGQGTLVTVSS VL: QSVVTQPPSVSGAPGQRVTISCRSSTGAVTTSNYANWYQQLPGTAPKLLIYGTNNRAPGVPDRFSGSKSGASASLAITGLQAEDEADYYCALWYSNHWVFGGGTKLTVL", "IC50 (pM), Fab-ZAP cell kill, NCI-H929": 119}
